Just for reference, ChEMBL document CHEMBL5223146 is where these values come from.

# assayProtocol: Cytotoxicity against African green monkey Vero cells measured after 4 days by colorimetric assay
# Type: toxicity, cell-based
# statedConditions: chlorocebus sabaeus, Vero cells; time 4 day
Threshold check on CC50 at 96 h: strictly below 200 µM is 1.0; on or above 200 µM is 0.0.

[[record]]
compound = "O=C(NC1CC1)c1c(O)nc(-c2ccc([N+](=O)[O-])cc2)n1O"
label = 0.0

[[record]]
compound = "CCCCNC(=O)c1c(O)nc(-c2ccccc2[N+](=O)[O-])n1O"
label = 0.0

[[record]]
compound = "O=C(NC1CC1)c1c(O)nc(-c2ccccc2[N+](=O)[O-])n1O"
label = 0.0

[[record]]
compound = "CCOC(=O)c1c(O)nc(-c2ccccc2)n1O"
label = 1.0

[[record]]
compound = "CCCCNC(=O)c1c(O)nc(-c2cccc([N+](=O)[O-])c2)n1O"
label = 1.0

[[record]]
compound = "CCOC(=O)c1c(O)nc(-c2ccccc2O)n1O"
label = 0.0

[[record]]
compound = "CCOC(=O)c1c(O)nc(-c2ccccc2[N+](=O)[O-])n1O"
label = 0.0

[[record]]
compound = "CCCCNC(=O)c1c(O)nc(-c2ccccc2)n1O"
label = 0.0

[[record]]
compound = "CCOC(=O)c1c(O)nc(-c2ccc(C(F)(F)F)cc2)n1O"
label = 0.0

[[record]]
compound = "CCOC(=O)c1c(O)nc(-c2ccc([N+](=O)[O-])cc2)n1O"
label = 1.0

[[record]]
compound = "CCCCNC(=O)c1c(O)nc(-c2ccc(C(F)(F)F)cc2)n1O"
label = 1.0

[[record]]
compound = "O=C(NC1CC1)c1c(O)nc(-c2ccccc2)n1O"
label = 0.0

[[record]]
compound = "O=C(NC1CC1)c1c(O)nc(-c2cccc([N+](=O)[O-])c2)n1O"
label = 0.0

[[record]]
compound = "CCOC(=O)c1c(O)nc(-c2cccc([N+](=O)[O-])c2)n1O"
label = 0.0


###

# assayProtocol: Selectivity index, ratio of CC50 for African green monkey Vero cells to IC50 for Vaccinia virus Copenhagen infected in Vero cells
# Assay type: toxicity, cell-based
# statedConditions: read-out: Ratio CC50/IC50
selectivity ratio listing for selected compounds.
measurementKind: selectivity ratio

[[record]]
compound = "O=C(NC1CC1)c1c(O)nc(-c2ccc(C(F)(F)F)cc2)n1O"
measurementkind = "selectivity ratio"
measurement = 10

[[record]]
compound = "Nc1ccn(C[C@@H](CO)OCP(=O)(O)O)c(=O)n1"
measurementkind = "selectivity ratio"
measurement = 30

[[record]]
compound = "CCOC(=O)c1c(O)nc(-c2ccc([N+](=O)[O-])cc2)n1O"
measurementkind = "selectivity ratio"
measurement = 102

[[record]]
compound = "CCOC(=O)c1c(O)nc(-c2ccc(C(F)(F)F)cc2)n1O"
measurementkind = "selectivity ratio"
measurement = 919

[[record]]
compound = "CCCCNC(=O)c1c(O)nc(-c2ccccc2O)n1O"
measurementkind = "selectivity ratio"
measurement = 13

[[record]]
compound = "CCOC(=O)c1c(O)nc(-c2ccccc2O)n1O"
measurementkind = "selectivity ratio"
measurement = 117

[[record]]
compound = "CCCCNC(=O)c1c(O)nc(-c2ccccc2)n1O"
measurementkind = "selectivity ratio"
measurement = 6

[[record]]
compound = "CCCCNC(=O)c1c(O)nc(-c2cccc([N+](=O)[O-])c2)n1O"
measurementkind = "selectivity ratio"
measurement = 9

[[record]]
compound = "CCCCNC(=O)c1c(O)nc(-c2ccc([N+](=O)[O-])cc2)n1O"
measurementkind = "selectivity ratio"
measurement = 66

[[record]]
compound = "O=C(NNC(=O)C1C2C=CC(C3CC23)C1C(=O)O)c1ccc(C(F)(F)F)cc1 (configuration not stated)"
measurementkind = "selectivity ratio"
measurement = 157

[[record]]
compound = "CCCCNC(=O)c1c(O)nc(-c2ccc(C(F)(F)F)cc2)n1O"
measurementkind = "selectivity ratio"
measurement = 8

[[record]]
compound = "O=C(NC1CC1)c1c(O)nc(-c2ccc([N+](=O)[O-])cc2)n1O"
measurementkind = "selectivity ratio"
measurement = 33


###

# assayProtocol: Cytotoxicity against MDCK cells measured after 4 days by colorimetric assay
# Assay type: toxicity, cell-based, Canis lupus familiaris
# statedConditions: dog, MDCK cells; time 4 day
CC50 at 96 h listing for selected compounds.
measurementKind: CC50 at 96 h

[[record]]
compound = "O=C(NC1CC1)c1c(O)nc(-c2ccccc2[N+](=O)[O-])n1O"
measurement = "> 331 µM"

[[record]]
compound = "CCOC(=O)c1c(O)nc(-c2ccc([N+](=O)[O-])cc2)n1O"
measurement = "> 344 µM"

[[record]]
compound = "CCOC(=O)c1c(O)nc(-c2cccc([N+](=O)[O-])c2)n1O"
measurement = "> 344 µM"

[[record]]
compound = "CCOC(=O)c1c(O)nc(-c2ccccc2O)n1O"
measurement = "> 382 µM"

[[record]]
compound = "CCOC(=O)c1c(O)nc(-c2ccccc2)n1O"
measurement = "> 406 µM"


###

# Tested on: Cowpox virus
# assayProtocol: Antiviral activity against Cowpox virus Grishak infected in Vero cells measured after 4 days by colorimetric assay
# Type: functional, organism-based
# statedConditions: 96 h
measurementKind: IC50 (µM)

[[record]]
compound = "CCCCNC(=O)c1c(O)nc(-c2ccc([N+](=O)[O-])cc2)n1O"
measurement = 12.3

[[record]]
compound = "CCOC(=O)c1c(O)nc(-c2ccc([N+](=O)[O-])cc2)n1O"
measurement = 3.23

[[record]]
compound = "CCOC(=O)c1c(O)nc(-c2ccc(C(F)(F)F)cc2)n1O"
measurement = 10

[[record]]
compound = "Nc1ccn(C[C@@H](CO)OCP(=O)(O)O)c(=O)n1"
measurement = 46.4

[[record]]
compound = "O=C(NC1CC1)c1c(O)nc(-c2ccc([N+](=O)[O-])cc2)n1O"
measurement = 22.1

[[record]]
compound = "O=C(NNC(=O)C1C2C=CC(C3CC23)C1C(=O)O)c1ccc(C(F)(F)F)cc1 (configuration not stated)"
measurement = 0.0203

[[record]]
compound = "CCOC(=O)c1c(O)nc(-c2ccccc2O)n1O"
measurement = 31.4


###

# assayProtocol: Selectivity index, ratio of CC50 for African green monkey Vero cells to IC50 for Cowpox virus Grishak infected in Vero cells
# Type: toxicity, cell-based
# statedConditions: read-out: Ratio CC50/IC50
selectivity ratio listing for selected molecules.
measurementKind: selectivity ratio

[[record]]
molecule = "CCOC(=O)c1c(O)nc(-c2ccc(C(F)(F)F)cc2)n1O"
measurement = 32

[[record]]
molecule = "O=C(NC1CC1)c1c(O)nc(-c2ccc([N+](=O)[O-])cc2)n1O"
measurement = 16

[[record]]
molecule = "CCOC(=O)c1c(O)nc(-c2ccccc2O)n1O"
measurement = 58

[[record]]
molecule = "CCCCNC(=O)c1c(O)nc(-c2ccc([N+](=O)[O-])cc2)n1O"
measurement = 16

[[record]]
molecule = "CCOC(=O)c1c(O)nc(-c2ccc([N+](=O)[O-])cc2)n1O"
measurement = 14

[[record]]
molecule = "Nc1ccn(C[C@@H](CO)OCP(=O)(O)O)c(=O)n1"
measurement = 21

[[record]]
molecule = "O=C(NNC(=O)C1C2C=CC(C3CC23)C1C(=O)O)c1ccc(C(F)(F)F)cc1 (configuration not stated)"
measurement = 58.8


###

# assayProtocol: Cytotoxicity against MDCK cells measured after 4 days by colorimetric assay
# Type: toxicity, cell-based, Canis lupus familiaris
# statedConditions: dog, MDCK cells; time 4 day
measurementKind: CC50 at 96 h

[[record]]
compound = "CCOC(=O)c1c(O)nc(-c2ccccc2[N+](=O)[O-])n1O"
measurement = "> 344 µM"

[[record]]
compound = "CCOC(=O)c1c(O)nc(-c2ccc(C(F)(F)F)cc2)n1O"
measurement = "> 318 µM"

[[record]]
compound = "CCCCNC(=O)c1c(O)nc(-c2ccccc2[N+](=O)[O-])n1O"
measurement = "> 314 µM"

[[record]]
compound = "O=C(NC1CC1)c1c(O)nc(-c2ccc([N+](=O)[O-])cc2)n1O"
measurement = "> 331 µM"

[[record]]
compound = "O=C(NC1CC1)c1c(O)nc(-c2ccc(C(F)(F)F)cc2)n1O"
measurement = "> 308 µM"

[[record]]
compound = "CCCCNC(=O)c1c(O)nc(-c2cccc([N+](=O)[O-])c2)n1O"
measurement = "> 314 µM"

[[record]]
compound = "CCCCNC(=O)c1c(O)nc(-c2ccc([N+](=O)[O-])cc2)n1O"
measurement = "27.2 µM"

[[record]]
compound = "CCCCNC(=O)c1c(O)nc(-c2ccccc2O)n1O"
measurement = "42.9 µM"

[[record]]
compound = "O=C(NC1CC1)c1c(O)nc(-c2cccc([N+](=O)[O-])c2)n1O"
measurement = "> 331 µM"

[[record]]
compound = "O=C(NC1CC1)c1c(O)nc(-c2ccccc2)n1O"
measurement = "> 389 µM"

[[record]]
compound = "CCCCNC(=O)c1c(O)nc(-c2ccccc2)n1O"
measurement = "> 366 µM"

